IC50 listing for selected molecules.
molecular target: GppNp-KRAS G12D (Homo sapiens, UniProt P01116, G12D); test: biochemical
Sequence (P01116 1-169 isoform P01116-2 G12D): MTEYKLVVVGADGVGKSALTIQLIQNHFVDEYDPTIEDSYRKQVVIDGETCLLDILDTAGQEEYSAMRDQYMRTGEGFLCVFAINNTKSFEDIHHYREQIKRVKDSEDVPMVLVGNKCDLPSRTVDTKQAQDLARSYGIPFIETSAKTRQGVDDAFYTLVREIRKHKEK

[[record]]
molecule = "N#Cc1c(N)sc2c(F)ccc(-c3c(F)c4c5c(nc(OC[C@@]67CCCN6C[C@H](F)C7)nc5c3F)N3CCCOC[C@H]3CO4)c12 (single isomer, unassigned) [Compound 163A]"
measured_property = "IC50"
result = "> 1000 nM"

[[record]]
molecule = "C#Cc1c(F)ccc2cc(N)cc(-c3nc4c5c(nc(OC[C@@]67CCCN6C[C@H](F)C7)nc5c3F)N3CCCOCC3N4C3CC3)c12 (stereo partly drawn) [Compound 68]"
measured_property = "IC50"
result = "187 nM"

[[record]]
molecule = "C#Cc1c(F)ccc2cc(N)cc(-c3nc4c5c(nc(OC[C@@]67CCCN6C[C@H](F)C7)nc5c3F)N3CCCC3N4C)c12 (stereo partly drawn) [Compound 153]"
measured_property = "IC50"
result = "> 1000 nM"


Query: Item under review: C#Cc1c(F)ccc2cc(N)cc(-c3nc4c5c(nc(OC[C@@]67CCCN6C[C@H](F)C7)nc5c3F)N3CCCC/C(=C/F)C3N4C)c12 (stereo partly drawn) [Compound 86] . Reported IC50?
Reply: > 1000 nM

Query: Item under review: C#Cc1c(F)ccc2cc(N)cc(-c3nc4c5c(nc(OCC(CN6CCOCC6)OC)nc5c3F)N3CCCOCC3N4C)c12 (stereo not drawn) [Compound 142] . Reported IC50?
Reply: > 1000 nM

Query: Item under review: C#Cc1c(F)ccc2cc(N)cc(-c3nc4c5c(nc(OC[C@@]67CCCN6C[C@H](F)C7)nc5c3F)N3C(C5CCC5)CCOCC3N4C)c12 (stereo partly drawn) [Compound 105] . Reported IC50?
Reply: > 1000 nM

Query: Item under review: CCc1c(F)ccc2cc(N)cc(-c3nc4c5c(nc(OC[C@@]67CCCN6C[C@H](F)C7)nc5c3F)N3[C@@H](C)CCOC[C@H]3N4C)c12 [Compound 127] . Reported IC50?
Reply: 299 nM

Query: Item under review: C#Cc1c(F)ccc2cc(N)cc(-c3nc4c5c(nc(OC[C@@]67CCCN6C[C@H](F)C7)nc5c3F)N3C(CCCC[C@@H]3C(C)O)N4C)c12 (stereo partly drawn) [Compound 143] . Reported IC50?
Reply: 246 nM

----------
target: GDP-KRAS G12V (Homo sapiens, UniProt P01116, G12V); experiment: SOS1 catalyzed nucleotide exchange assay, GDP-KRAS G12V; conditions: read-out: Biochemical assays, IC50, KRAS G12V GDP, GDP form K-Ras G12V, TR-FRET
Sequence (P01116 1-169 isoform P01116-2 G12V): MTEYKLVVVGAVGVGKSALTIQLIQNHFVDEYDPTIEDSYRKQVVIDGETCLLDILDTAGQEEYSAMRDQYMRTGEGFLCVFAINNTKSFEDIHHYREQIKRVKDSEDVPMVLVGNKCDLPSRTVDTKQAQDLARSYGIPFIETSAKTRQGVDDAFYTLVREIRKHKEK
measured_property: IC50

[[record]]
molecule = "C#Cc1c(F)ccc2cc(N)cc(-c3nc4c5c(nc(OC[C@@]67CCCN6C[C@H](F)C7)nc5c3F)N3[C@@H](COCC[C@@H]3C)CO4)c12 [Compound 38A]"
measured_property = "IC50"
result = "0.292 nM"

[[record]]
molecule = "N#Cc1c(N)sc2c(F)ccc(-c3c(Cl)c4c5c(nc(OCC67CCCN6CC(F)C7)nc5c3F)N3CCCOCC3CO4)c12 (single isomer, unassigned) [Compound 66B]"
measured_property = "IC50"
result = "0.924 nM"


# evaluate next
Query: Item under review: C=Cc1c(F)ccc2cc(N)cc(-c3nc4c5c(nc(OC[C@@]67CCCN6C[C@H](F)C7)nc5c3F)N3CCCOC[C@H]3CO4)c12 [Compound 6B] . Reported IC50?
Reply: 3.82 nM
